Source: patent US20260364076A1

# test-name: Drug-drug interaction study with itraconazole (CYP3A4 inhibitor): sotorasib plasma PK in healthy subjects
# test-conditions: human, in vivo, po, 360 mg, AUClast (GLSM), 360 mg sotorasib alone (Reference), day 1, single oral dose, healthy subjects
quantity-name: AUC(0-t) (ng·h/mL)

- C=CC(=O)N1CCN(c2nc(=O)n(-c3c(C)ccnc3C(C)C)c3nc(-c4c(O)cccc4F)c(F)cc23)[C@@H](C)C1 (atropisomer, axis not shown; (M)): 22700

* * *

# test-name: Drug-drug interaction study with itraconazole (CYP3A4 inhibitor): sotorasib plasma PK in healthy subjects
# test-conditions: human, in vivo, po, 360 mg, AUClast (GLSM), 360 mg sotorasib + 200 mg itraconazole (Test), day 6, healthy subjects
quantity-name: AUC(0-t) (ng·h/mL)

• C=CC(=O)N1CCN(c2nc(=O)n(-c3c(C)ccnc3C(C)C)c3nc(-c4c(O)cccc4F)c(F)cc23)[C@@H](C)C1 (atropisomer, axis not shown; (M)) = 30700

* * *

# test-name: Single-dose PK study in subjects with moderate or severe hepatic impairment compared to healthy subjects
# Format: in vivo, human
# test-conditions: human, in vivo, po, 960 mg; read-out: half-life (t1/2), arithmetic mean
quantity-name: half-life

* C=CC(=O)N1CCN(c2nc(=O)n(-c3c(C)ccnc3C(C)C)c3nc(-c4c(O)cccc4F)c(F)cc23)[C@@H](C)C1 (atropisomer, axis not shown; (M)) [Sotorasib] | 385 to 491 min

* * *

# test-name: Drug-drug interaction study with itraconazole (CYP3A4 inhibitor): sotorasib plasma PK in healthy subjects
# test-conditions: human, in vivo, po, 360 mg, AUCinf (GLSM), 360 mg sotorasib alone (Reference), day 1, single oral dose, healthy subjects
# Protocol: Safety and tolerability monitoring were performed throughout the study.
quantity-name: AUC(0-inf) (ng·h/mL)

• C=CC(=O)N1CCN(c2nc(=O)n(-c3c(C)ccnc3C(C)C)c3nc(-c4c(O)cccc4F)c(F)cc23)[C@@H](C)C1 (atropisomer, axis not shown; (M)) = 24600

* * *

# test-name: Drug-drug interaction study with itraconazole (CYP3A4 inhibitor): sotorasib plasma PK in healthy subjects
# test-conditions: human, in vivo, po, 360 mg
quantity-name: Cmax

* C=CC(=O)N1CCN(c2nc(=O)n(-c3c(C)ccnc3C(C)C)c3nc(-c4c(O)cccc4F)c(F)cc23)[C@@H](C)C1 (atropisomer, axis not shown; (M)) | 6130 ng/mL
